Hey, just so you know, these numbers are from patent US5310884A.

Molecular target: LTD4 receptor (guinea-pig lung membranes) (Cavia porcellus, UniProt Q2NNR5)
Conditions: read-out: IC50 for inhibition of [125I]Azido-LTD4 specific binding; monovalent cation
Endpoint: IC50

[
  {
    "Query Smiles": "[Cl-].[Na+]",
    "Target Desc": "LTD4 receptor (guinea-pig lung membranes) (Cavia porcellus, UniProt Q2NNR5)",
    "Reported Measurement": "~30 mM"
  }
]

----------
Target chain: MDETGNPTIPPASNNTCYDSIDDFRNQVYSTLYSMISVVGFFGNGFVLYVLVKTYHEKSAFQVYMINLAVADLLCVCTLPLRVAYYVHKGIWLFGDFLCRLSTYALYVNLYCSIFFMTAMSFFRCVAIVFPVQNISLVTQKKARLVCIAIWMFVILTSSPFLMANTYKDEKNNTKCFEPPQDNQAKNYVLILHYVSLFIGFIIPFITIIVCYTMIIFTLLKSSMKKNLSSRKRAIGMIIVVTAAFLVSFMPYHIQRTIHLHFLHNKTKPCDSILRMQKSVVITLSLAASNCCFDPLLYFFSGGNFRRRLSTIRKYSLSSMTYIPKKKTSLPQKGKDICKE

[
  {
    "Compound": "CCCCC/C=C\\C\\C=C/C=C/C=C/[C@@H](SC[C@H](NC(=O)CCCCCNC(=O)c1cc([125I])c(N=[N+]=[N-])cc1O)C(=O)NCC(=O)O)[C@@H](O)CCCC(=O)O [[^125 I]Azido-LTD4]",
    "Kd [nM]": 0.2
  }
]

----------
Test system: 45 kDa guinea-pig lung membrane protein
Experiment: [125I]Azido-LTD4 photoaffinity labelling of the 45 kDa guinea-pig lung membrane protein (SDS-PAGE, autoradiography, laser densitometry)
Type: binding
Conditions: monovalent cation; read-out: IC50 for inhibition of radiolabelling of the 45 kDa protein
pIC50: −log10 of the molar value.
Endpoint: pIC50

[
  {
    "Query Smiles": "[Cl-].[Na+]",
    "Endpoint": "pIC50",
    "Reported Measurement": "~1.52"
  }
]

----------
Target: UniProtKB Q2NNR5
Assay: biochemical

[
  {
    "Query Smiles": "CCCCC/C=C\\C\\C=C/C=C/C=C/[C@@H](SC[C@H](NC(=O)CCCCCNC(=O)c1cc(I)c(N=[N+]=[N-])cc1O)C(=O)NCC(=O)O)[C@@H](O)CCCC(=O)O",
    "Target Desc": "UniProtKB Q2NNR5",
    "Ki / nM": 1.7
  }
]
